Sourced from paper PMC9482650

- test.system: T1, APBA1_2, Q02410
- T1 sequence (Q02410 742-832, limits assumed, looked up): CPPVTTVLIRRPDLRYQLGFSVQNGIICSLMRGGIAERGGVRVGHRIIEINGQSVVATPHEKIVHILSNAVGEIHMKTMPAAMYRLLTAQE
- assay.name: holdup assay
- Design: key: below the threshold = too weak to quantify, mostly under pKd 3.1 to 4
- study.conditions: plain residues with an end cap or a label only (N-terminal biotin on a linker: ahx)
endpoint: pKd

Some binders with recorded pKd:
{"binder": "HNAFLSVTTV [PDZRN4, Q6ZMN7]", "value": "below the threshold"}
{"binder": "ESLLLGPSNF [SHROOM4, Q9ULL8]", "value": "below the threshold"}
{"binder": "RAVEEEESRF [PSCDBP, O60759]", "value": "below the threshold"}
{"binder": "LSDPSVSTVV [GRIN1, Q05586;Q05586-2]", "value": "below the threshold"}
{"binder": "PSASCAVTAA [PDLIM4, P50479;P50479-2]", "value": "below the threshold"}

Looking for the measured pKd of NRKREIFSNF [NHERF2, Q15599] , can you help?
below the threshold
